# Tested on: PIM1
# CONDITION LABEL: concentration: 1 μM, replicates: in singlicate; n = 1;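 further: KINOMEscan kinase panel screen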
Assignment: determine reported %Inh for the given compounds.
Output spec: scalar in %, unitless text.

Short answer for CS(=O)(=O)CCNCc1nc(-c2ccc3ncnc(Nc4ccc(OCc5cccc(F)c5)c(Cl)c4)c3c2)cs1.Cl : %Inh was 20

Short answer for C[C@@H]1CCN(C(=O)CO)C[C@@H]1N(C)c1ncnc2[nH]ccc12 : %Inh was 0

Short answer for CCn1c(-c2ccncc2)nc2cnccc21 : %Inh was 0

Short answer for Cl.c1ccc(Cn2ncc3cc(Nc4ncnc5ccccc45)ccc32)cc1 : %Inh was 0

Short answer for O=C(NCCCN1CCCC1=O)c1cnc(NCc2cc(Cl)ccc2Cl)nc1NC1CCNCC1 : %Inh was 0

Short answer for Cc1cc(N2CCC(NS(=O)(=O)c3ccc(F)cc3)CC2)nc(Nc2cccc(C#N)c2)n1.O=C(O)C(F)(F)F : %Inh was 25

Short answer for Cn1cc(-c2ccc3c(c2)CCN3C(=O)Cc2cccc(C(F)(F)F)c2)c2c(N)ncnc21 : %Inh was 0

Short answer for CCC(CC)(CC)n1cnc2c(N)ncnc21 : %Inh was 0

Short answer for Cl.Cn1ccc(-c2cccc(Nc3ccnc4cc(-c5nccs5)ccc34)c2)n1 : %Inh was 12

Short answer for CSc1ccc(NC2=C(c3ccccc3Cl)C(=O)NC2=O)cc1 : %Inh was 0

Short answer for Fc1cccc(COc2ccc(Nc3ncnc4nn5ccccc5c34)cc2Cl)c1 : %Inh was 0

Short answer for Cc1ccc(C)c(NC(=O)NCCNc2ccnc(Nc3ccc(F)cc3)n2)c1 : %Inh was 0

Short answer for Nc1n[nH]c2nnc(-c3ccccc3)cc12 : %Inh was 8

Short answer for COc1cc2c(Nc3cccc(NC(=O)c4ccccc4)c3)ncnc2cc1OCCCN1CCOCC1 : %Inh was 0

Short answer for COc1ccc(Nc2nccc(N3CCC(NC(=O)Nc4ccc5c(c4)OCO5)C3)n2)cc1 (stereo not shown) : %Inh was 9

Short answer for COc1cc2ncnc(Nc3ccc(OCc4ccccc4Br)c(Cl)c3)c2cc1OC.Cl : %Inh was 0

Short answer for Cl.O=S(=O)(c1cccc(F)c1)c1ccc(Nc2ncnc3cc(Br)sc23)cc1Cl : %Inh was 14

Short answer for CC(=O)Nc1n[nH]c2ncc(-c3ccccc3)cc12 : %Inh was 7

Short answer for COc1ccc(-c2oc3ncnc(N)c3c2-c2ccc(OC)cc2)cc1 : %Inh was 0

* * *

# System: FGFR3
# CONDITION LABEL: concentration: 1 μM, replicates: in singlicate; n = 1
Assignment: determine reported %Inh for the given compounds.
Output spec: scalar in %, unitless text.

Short answer for O=C(c1ccc(-c2cc(-c3c[nH]nc3-c3ccccn3)ccn2)cc1)N1CCCC1 [GW792479] : %Inh was 3

Short answer for FC(F)(F)c1ccc(-c2nn3ncccc3c2-c2ccnc(Nc3cccc(C(F)(F)F)c3)n2)cc1 [GW828205] : %Inh was 8

Short answer for COC(=O)c1cccc(NC(=O)NCCNc2ccnc(Nc3ccc(F)cc3)n2)c1 [GSK1379883] : %Inh was 15

Short answer for COc1cc2ncnc(Nc3ccc(OCc4ccccc4Br)c(Cl)c3)c2cc1OC.Cl [GI261590] : %Inh was 12

Short answer for COc1ccc(-c2oc3ncnc(N)c3c2-c2ccc(OC)cc2)cc1 [SB-589132] : %Inh was 0

Short answer for O=C(NCCCN1CCCC1=O)c1cnc(NCc2cc(Cl)ccc2Cl)nc1NC1CCNCC1 : %Inh was 0

Short answer for CSc1ccc(NC2=C(c3ccccc3Cl)C(=O)NC2=O)cc1 [SB-342411] : %Inh was 26

Short answer for Fc1ccc(Nc2nccc(-c3c(-c4ccc(Cl)cc4)nn4ncccc34)n2)cc1F [GW829058] : %Inh was 9

Short answer for Cl.Fc1ccccc1COc1ccc(Nc2ncnc3ccc(-c4nnc(C(F)(F)F)o4)cc23)cc1Cl [GW424170] : %Inh was 8

Short answer for O=C(Nc1ccccc1)Nc1ccc(Oc2ccc3nccn3n2)cc1 : %Inh was 15

Short answer for Fc1ccc(-c2ncn(CCCNCc3ccccc3)c2-c2ccncc2)cc1 : %Inh was 0

Short answer for OCCOCCn1ccc2ncnc(Nc3ccc(Oc4cccc(Cl)c4)c(Cl)c3)c21 : %Inh was 0

Short answer for C[C@H]1CC[C@@H](C(=O)Nc2ccccc2)CN1c1cc(-c2ccc3c(N)n[nH]c3c2)nc(N)n1 [GSK2283293] : %Inh was 0

Short answer for Cl.Cl.c1ccc(-c2cc3ccncc3cc2OC2CCNCC2)cc1 [GSK1122999] : %Inh was 11

Short answer for NC(=O)c1sc(-n2cnc3ccccc32)cc1OCc1ccccc1F [GSK1024306] : %Inh was 4

Short answer for Cn1cc(-c2ccc3c(c2)CCN3C(=O)Cc2cccc(C(F)(F)F)c2)c2c(N)ncnc21 [GSK2606414] : %Inh was 0

Short answer for Nc1nc(-c2ccccn2)c(-c2ccnc3ccccc23)s1 [GW548057] : %Inh was 16

Short answer for Nc1nc(-c2ccc3c(N)n[nH]c3c2)cc(N2CCC[C@@H](C(=O)Nc3ccccc3)C2)n1.O=C(O)C(F)(F)F.O=C(O)C(F)(F)F [GSK2288359] : %Inh was 7

* * *

# Tested on: FGR
# CONDITION LABEL: concentration: 1 μM, replicates: in singlicate; n = 1
Label rule met when %Inh is strictly below 20%; at or above that, label rule not met.

Query block: Threshold test, %Inh < 20%: Nc1nccc2scc(-c3ccc4c(c3)CCN4C(=O)Cc3cc(F)ccc3F)c12
Result block: rule not met

Query block: Threshold test, %Inh < 20%: CC(=O)Nc1n[nH]c2ncc(-c3ccccc3)cc12
Result block: rule met

Query block: Threshold test, %Inh < 20%: Cc1ccc(NC(=O)c2cccc(C#N)c2)cc1-c1ccc(C(=O)Nc2ccncc2)cc1
Result block: rule not met

Query block: Threshold test, %Inh < 20%: CCn1c(-c2ccncc2)nc2cnccc21
Result block: rule met

Query block: Threshold test, %Inh < 20%: CS(=O)(=O)CCNCc1ccc(-c2ccc3ncnc(Nc4ccc(OCc5ccccc5)c(Cl)c4)c3c2)o1.Cl
Result block: rule met

Query block: Threshold test, %Inh < 20%: FC(F)(F)c1cc(Nc2nccc(-c3c(-c4ccc(Cl)cc4)nn4ncccc34)n2)ccc1Cl
Result block: rule met

Query block: Threshold test, %Inh < 20%: CCc1nc(-c2cccc(C)c2)c(-c2ccnc(NC(=O)c3ccccc3)c2)s1
Result block: rule not met

Query block: Threshold test, %Inh < 20%: COc1ccc(NC(=O)Nc2ccc(C)c(-c3ccc(C(=O)Nc4ccncc4)cc3)c2)cc1
Result block: rule not met

Query block: Threshold test, %Inh < 20%: Fc1cccc(COc2ccc(Nc3ncnc4cc[nH]c34)cc2Cl)c1
Result block: rule met

Query block: Threshold test, %Inh < 20%: Cl.c1ccc(Cn2ccc3cc(Nc4ncnc5ccccc45)ccc32)cc1
Result block: rule not met

Query block: Threshold test, %Inh < 20%: N#Cc1ccc(Oc2ccc(Nc3ncnc4cc[nH]c34)cc2Cl)cc1
Result block: rule not met

Query block: Threshold test, %Inh < 20%: Cn1ccc2ncnc(Nc3ccc(Oc4cccc(Cl)c4)c(Cl)c3)c21
Result block: rule met

Query block: Threshold test, %Inh < 20%: Cc1ccc(O)cc1Nc1cc(C(F)(F)F)nc2ccc(-c3ccncc3)cc12
Result block: rule not met

Query block: Threshold test, %Inh < 20%: O=c1cc(N2CCOCC2)nc2n(Cc3cccc(Cl)c3)ccn12
Result block: rule met

Query block: Threshold test, %Inh < 20%: Fc1ccc(Nc2nccc(-c3c(-c4ccc(Cl)cc4)nn4ncccc34)n2)cc1F
Result block: rule met

Query block: Threshold test, %Inh < 20%: COc1ccc(NC(=O)c2ccc(-c3cc(-c4nnc(C)o4)ccc3C)cc2)cc1
Result block: rule met

Query block: Threshold test, %Inh < 20%: O=C(Nc1ccccc1)Nc1ccc(Oc2ccc3nccn3n2)cc1
Result block: rule met

Query block: Threshold test, %Inh < 20%: FC(F)(F)c1ccc(-c2nn3ncccc3c2-c2ccnc(Nc3cccc(C(F)(F)F)c3)n2)cc1
Result block: rule not met

Query block: Threshold test, %Inh < 20%: C[C@@H]1CCN(C(=O)CO)C[C@@H]1N(C)c1ncnc2[nH]ccc12
Result block: rule met

* * *

Assignment: determine reported %Inh for the given compounds.
# Tested on: NEK9
# CONDITION LABEL: concentration: 1 μM, replicates: in singlicate; n = 1
Output spec: scalar in %, unitless text.

Short answer for O=c1cc(N2CCOCC2)nc2n(Cc3cccc(Cl)c3)ccn12 : %Inh was 3

Short answer for COc1cc2c(Nc3cccc(NC(=O)c4ccccc4)c3)ncnc2cc1OCCCN1CCOCC1 : %Inh was 21

Short answer for FC(F)(F)c1cc(Nc2nccc(-c3c(-c4ccc(Cl)cc4)nn4ncccc34)n2)ccc1Cl : %Inh was 0

Short answer for Cc1ccc(C)c(NC(=O)NCCNc2ccnc(Nc3ccc(F)cc3)n2)c1 : %Inh was 9

Short answer for O=C(Nc1ccccc1F)NC1CCN(c2ccnc(Nc3ccc(F)cc3)n2)C1 (stereo not drawn) : %Inh was 0

Short answer for COC(=O)c1cccc(NC(=O)NCCNc2ccnc(Nc3ccc(F)cc3)n2)c1 : %Inh was 11

Short answer for Fc1ccc(-c2ncn(CCCNCc3ccccc3)c2-c2ccncc2)cc1 : %Inh was 0

Short answer for Fc1cccc(COc2ccc(Nc3ncnc4nn5ccccc5c34)cc2Cl)c1 : %Inh was 4

Short answer for Cc1ccc(NC(=O)c2cccc(C#N)c2)cc1-c1ccc(C(=O)Nc2ccncc2)cc1 : %Inh was 4
